Provenance of the data: the antibiotic and cytotoxicity screens of Wong et al. (2023)

Tested on: HSkMC
Experiment: cytotoxicity call (relative viability < 0.9)
Conditions: 10 µM
About 1,500 (3.8%) of roughly 39,000 compounds were called active. The sample as a whole holds a higher share of actives than the screen did.
Possible outcomes: active, inactive

{"COMPOUND": "C[C@@H]1CN([C@H](C)CO)C(=O)CCCn2nncc2CO[C@@H]1CN(C)Cc1cccc2c1OCCCO2", "TGT": "HSkMC", "CLASSIFICATION": "inactive"}
{"COMPOUND": "CC(C)(C)[S@@](=O)N1Cc2cc(C(=O)NCc3ccccc3F)nc(-c3cccc(-c4cccnc4)c3)c2[C@H]1CCO", "TGT": "HSkMC", "CLASSIFICATION": "inactive"}
{"COMPOUND": "CC(CCC(=O)O)C1CCC2C3C(O)CC4CC(O)CCC4(C)C3CC(O)C12C (stereo not drawn)", "TGT": "HSkMC", "CLASSIFICATION": "inactive"}
{"COMPOUND": "C[C@@H]1CN([C@@H](C)CO)C(=O)c2cccc(NC(=O)NC3CCCCC3)c2O[C@H]1CN(C)Cc1ccc(Cl)c(Cl)c1", "TGT": "HSkMC", "CLASSIFICATION": "inactive"}
{"COMPOUND": "CC(CCC(=O)NCC(=O)O)C1CCC2C3C(O)CC4CC(O)CCC4(C)C3CC(O)C12C (stereo not drawn)", "TGT": "HSkMC", "CLASSIFICATION": "inactive"}
{"COMPOUND": "CCCCC(CC)CN1CN(CC(CC)CCCC)CC(C)(N)C1 (stereo not drawn)", "TGT": "HSkMC", "CLASSIFICATION": "active"}
{"COMPOUND": "COc1ccc(CN(C)C[C@H]2OCCCC[C@H](C)Oc3ccc(NC(=O)c4ccccc4)cc3C(=O)N([C@H](C)CO)C[C@@H]2C)cc1", "TGT": "HSkMC", "CLASSIFICATION": "inactive"}
{"COMPOUND": "COc1ccc(S(=O)(=O)N(C)C[C@@H]2Oc3ccc(NS(=O)(=O)c4cccs4)cc3C(=O)N([C@@H](C)CO)C[C@H]2C)cc1", "TGT": "HSkMC", "CLASSIFICATION": "inactive"}

---

System: HSkMC
Assay: cytotoxicity call (relative viability < 0.9)
Conditions: 10 µM
About 1,500 (3.8%) of roughly 39,000 compounds were called active. The full list was thinned out, with actives kept by preference.
Possible outcomes: YES = active, NO = inactive

{"COMPOUND_STRING": "C[C@@H]1CN([C@H](C)CO)C(=O)Cc2cc(NC(=O)c3ccncc3)ccc2O[C@H]1CN(C)Cc1ccc2c(c1)OCO2", "CLASSIFICATION": "NO"}
{"COMPOUND_STRING": "C[C@@H]1CN([C@@H](C)CO)C(=O)c2cccc(NC(=O)Nc3cccc4ccccc34)c2O[C@H]1CN(C)S(=O)(=O)c1ccccc1", "CLASSIFICATION": "NO"}
{"COMPOUND_STRING": "C[C@@H]1CCCCO[C@@H](CN(C)Cc2ccc3c(c2)OCO3)[C@@H](C)CN([C@H](C)CO)C(=O)c2cc(NS(=O)(=O)c3ccc(Cl)cc3)ccc2O1", "CLASSIFICATION": "NO"}
{"COMPOUND_STRING": "COc1ccc(S(=O)(=O)Nc2ccc3c(c2)C(=O)N([C@@H](C)CO)C[C@@H](C)[C@H](CN(C)C(=O)Nc2ccc(F)cc2)OCCCC[C@@H](C)O3)cc1", "CLASSIFICATION": "NO"}
{"COMPOUND_STRING": "C[C@@H]1CN([C@@H](C)CO)C(=O)CCCn2cc(nn2)CO[C@H]1CN(C)C(=O)Nc1cccc(Oc2ccccn2)c1", "CLASSIFICATION": "NO"}
{"COMPOUND_STRING": "C[C@@H]1CCCCO[C@H](CN(C)Cc2ccc(Cl)c(Cl)c2)[C@@H](C)CN([C@@H](C)CO)C(=O)c2cc(NS(=O)(=O)c3ccc(F)cc3)ccc2O1", "CLASSIFICATION": "YES"}
{"COMPOUND_STRING": "CCCCCS(=O)(=O)CCCCCCCCCCn1c(-c2ccc(O)cc2)c(C)c2cc(O)ccc21", "CLASSIFICATION": "YES"}

---

System: HSkMC
Assay: cytotoxicity call (relative viability < 0.9)
Settings: 10 µM
Screen size: about 39,000 compounds; about 1,500 (3.8%) were called active. Many of the other results were omitted from the sample, so actives are more common in it than they were.
Possible outcomes: yes for active, no for inactive

{"COMPOUND_STRING": "C[C@@H]1CN([C@H](C)CO)C(=O)c2cc(C#Cc3ccccc3F)cnc2O[C@H]1CN(C)C(=O)c1ccc2c(c1)OCO2", "CLASSIFICATION": "no"}
{"COMPOUND_STRING": "Cc1ccc(S(=O)(=O)Nc2ccc3c(c2)C(=O)N([C@@H](C)CO)C[C@@H](C)[C@@H](CN(C)Cc2ccc(Cl)c(Cl)c2)O3)cc1", "CLASSIFICATION": "yes"}
{"COMPOUND_STRING": "C[C@@H]1CN([C@H](C)CO)C(=O)CCCn2nncc2CO[C@@H]1CN(C)S(=O)(=O)c1ccc(-n2cccn2)cc1", "CLASSIFICATION": "no"}
{"COMPOUND_STRING": "COc1ccc(S(=O)(=O)Nc2ccc3c(c2)CC(=O)N([C@@H](C)CO)C[C@H](C)[C@@H](CN(C)S(=O)(=O)c2ccc(OC)cc2)O3)cc1", "CLASSIFICATION": "no"}
{"COMPOUND_STRING": "CC(=NNC(=O)c1nnn(-c2nonc2N)c1CN1CCC(C)CC1)c1cccc(Br)c1", "CLASSIFICATION": "no"}
{"COMPOUND_STRING": "CN1C(=O)c2cc(NC(=O)Cc3cccs3)ccc2OC[C@H]2O[C@H](CC(=O)NCCCN3CCOCC3)CC[C@@H]21", "CLASSIFICATION": "no"}
{"COMPOUND_STRING": "COc1ccccc1S(=O)(=O)N[C@@H]1CC[C@H](CCNC(=O)C2CC2)O[C@H]1CO", "CLASSIFICATION": "no"}
{"COMPOUND_STRING": "C[C@H]1CN([C@@H](C)CO)C(=O)c2cc(C#CCN(C)C)cnc2O[C@@H]1CN(C)C(=O)c1cnccn1", "CLASSIFICATION": "no"}

---

System: HSkMC (human skeletal muscle cells)
Experiment: cytotoxicity call (relative viability < 0.9)
Conditions: 10 µM
The whole screen tested about 39,000 compounds, of which about 1,500 (3.8%) were called active. What follows is part of a selection rich in actives, with near analogues and random picks from the rest.
Possible outcomes: active, inactive

{"COMPOUND_STRING": "C[C@H](CO)N1C[C@H](C)[C@@H](CN(C)C(=O)Nc2ccc(F)cc2)OCCCC[C@H](C)Oc2ccc(NS(=O)(=O)c3cccs3)cc2C1=O", "CLASSIFICATION": "inactive"}
{"COMPOUND_STRING": "C[C@@H]1CN([C@H](C)CO)C(=O)c2cccc(NC(=O)c3ccc(-c4nccs4)cc3)c2O[C@H]1CN(C)S(=O)(=O)c1ccc(Cl)cc1", "CLASSIFICATION": "inactive"}
{"COMPOUND_STRING": "CC(C)NC(=O)Nc1ccc2c(c1)CC(=O)N([C@@H](C)CO)C[C@@H](C)[C@@H](CN(C)Cc1ccc3c(c1)OCO3)O2", "CLASSIFICATION": "inactive"}
{"COMPOUND_STRING": "CO[C@@H]1[C@H](O[P@@](=O)(OC[C@H]2O[C@@H](n3cnc4c(N)ncnc43)C[C@@H]2O)SCOC(=O)OC(C)C)[C@@H](CO)O[C@H]1n1ccc(=O)[nH]c1=O", "CLASSIFICATION": "inactive"}
{"COMPOUND_STRING": "C[C@@H]1CN([C@@H](C)CO)C(=O)Cc2cc(NC(=O)NC3CCCCC3)ccc2O[C@@H]1CN(C)C(=O)Nc1cccc2ccccc12", "CLASSIFICATION": "inactive"}
{"COMPOUND_STRING": "C[C@@H]1CN([C@H](C)CO)C(=O)c2cc(C#CC3(O)CCCC3)cnc2O[C@H]1CN(C)C(=O)Cc1ccccc1", "CLASSIFICATION": "inactive"}
{"COMPOUND_STRING": "C[C@@H]1CCCCO[C@H](CN(C)Cc2ccccc2)[C@@H](C)CN([C@@H](C)CO)C(=O)c2cc(NC(=O)NC3CCCCC3)ccc2O1", "CLASSIFICATION": "inactive"}
{"COMPOUND_STRING": "Cc1noc(C)c1NC(=O)N(C)C[C@@H]1Oc2ccc(NC(=O)Cn3cnnn3)cc2C(=O)N([C@@H](C)CO)C[C@@H]1C", "CLASSIFICATION": "inactive"}
{"COMPOUND_STRING": "CCc1ccc(NC(=S)Nc2ccccc2C(C)C)cc1", "CLASSIFICATION": "inactive"}
{"COMPOUND_STRING": "CO[C@@H]1CN(C)C(=O)c2cc(NC(=O)CC(F)(F)F)ccc2OC[C@H](C)N(S(=O)(=O)c2cn(C)cn2)C[C@H]1C", "CLASSIFICATION": "inactive"}
{"COMPOUND_STRING": "COc1ccccc1C#Cc1ccc2c(c1)O[C@H](CN(C)Cc1ccncc1)[C@@H](C)CN([C@@H](C)CO)S2(=O)=O", "CLASSIFICATION": "active"}
{"COMPOUND_STRING": "C[C@H](CO)N1C[C@H](C)[C@H](CN(C)C(=O)Nc2ccccc2C(F)(F)F)OCc2cnnn2CCCC1=O", "CLASSIFICATION": "inactive"}
{"COMPOUND_STRING": "C[C@@H]1CCCCO[C@H](CN(C)C(=O)Nc2ccc(F)cc2)[C@@H](C)CN([C@@H](C)CO)C(=O)c2cc(NC(=O)CCC(F)(F)F)ccc2O1", "CLASSIFICATION": "inactive"}
{"COMPOUND_STRING": "C[C@H](CO)N1C[C@H](C)[C@H](CN(C)C(=O)Cc2ccncc2)Oc2cc(C#CC3(O)CCCC3)ccc2S1(=O)=O", "CLASSIFICATION": "inactive"}
{"COMPOUND_STRING": "CC(C)(O)c1ccccc1CC[C@@H](SCC1(CC(=O)O)CC1)c1cccc(/C=C/c2ccc3ccc(Cl)cc3n2)c1", "CLASSIFICATION": "active"}
{"COMPOUND_STRING": "C[C@H]1CN([C@@H](C)CO)C(=O)Cc2cc(NC(=O)C3CCCCC3)ccc2O[C@H]1CN(C)C(=O)Nc1ccc(C(F)(F)F)cc1", "CLASSIFICATION": "inactive"}
{"COMPOUND_STRING": "NC(=O)NCC#Cc1ccc2c(c1)[C@]1(C(=O)N2)[C@H](C(=O)O)[C@H]2C(=O)O[C@H](c3ccccc3)[C@H](c3ccccc3)N2[C@@H]1c1ccc(OCCO)cc1", "CLASSIFICATION": "inactive"}
{"COMPOUND_STRING": "C[C@H](CO)N1C[C@H](C)[C@H](CN(C)C(=O)Cc2ccccc2)Oc2ncc(C#CC3(O)CCCC3)cc2C1=O", "CLASSIFICATION": "active"}
{"COMPOUND_STRING": "COc1ccc(S(=O)(=O)N[C@H]2C=C[C@H](CC(=O)N3CCC(Cc4ccccc4)CC3)O[C@H]2CO)cc1", "CLASSIFICATION": "inactive"}
{"COMPOUND_STRING": "C=CC[C@@H](CC(=O)N[C@H](CO)Cc1ccccc1)C(=O)NCCOC(=O)[C@H](CC=C)CC(=O)OC(C)(C)C", "CLASSIFICATION": "inactive"}
{"COMPOUND_STRING": "C[C@H](CO)N1C[C@H](C)[C@@H](CN(C)C(=O)Cc2ccccc2)Oc2ncc(C#CC3(O)CCCC3)cc2C1=O", "CLASSIFICATION": "inactive"}
{"COMPOUND_STRING": "O=C1CN(C(=O)c2ccccc2)C(=S)N1", "CLASSIFICATION": "inactive"}
{"COMPOUND_STRING": "C[C@H](CO)N1C[C@H](C)[C@@H](CN(C)Cc2ccc3c(c2)OCO3)Oc2cc(C#CCN(C)C)ccc2S1(=O)=O", "CLASSIFICATION": "inactive"}
{"COMPOUND_STRING": "COc1ccccc1C#Cc1ccc2c(c1)O[C@@H](CN(C)Cc1ccncc1)[C@@H](C)CN([C@@H](C)CO)S2(=O)=O", "CLASSIFICATION": "inactive"}
{"COMPOUND_STRING": "Cc1ccc(-c2c[nH]c(=S)[nH]2)cc1", "CLASSIFICATION": "inactive"}
{"COMPOUND_STRING": "COCC#Cc1ccc2c(c1)O[C@H](CN(C)C(=O)c1ccccc1)[C@@H](C)CN([C@@H](C)CO)S2(=O)=O", "CLASSIFICATION": "inactive"}
{"COMPOUND_STRING": "COc1ccccc1C#Cc1ccc2c(c1)O[C@H](CN(C)Cc1ccncc1)[C@H](C)CN([C@@H](C)CO)S2(=O)=O", "CLASSIFICATION": "inactive"}
{"COMPOUND_STRING": "C[C@H](CO)N1C[C@H](C)[C@@H](CN(C)C(=O)NC2CCCCC2)Oc2c(NC(=O)C3CC3)cccc2C1=O", "CLASSIFICATION": "inactive"}
{"COMPOUND_STRING": "COc1ccccc1C#Cc1ccc2c(c1)O[C@H](CN(C)Cc1ccncc1)[C@@H](C)CN([C@H](C)CO)S2(=O)=O", "CLASSIFICATION": "inactive"}
{"COMPOUND_STRING": "COc1ccccc1C#Cc1ccc2c(c1)O[C@@H](CN(C)Cc1ccncc1)[C@H](C)CN([C@@H](C)CO)S2(=O)=O", "CLASSIFICATION": "active"}
